Assay: Tapped density according to USP 24, method II
Format: physicochemical
Details: USP 24, method II; trihydrate
Measurement Kind: Tap. dens. (dt) (g/mL)
A number alone suffices; assume g/mL.

stdin: Provide only the value of recorded Tap. dens. (dt) for CC1(C)S[C@@H]2[C@H](NC(=O)[C@H](N)c3ccc(O)cc3)C(=O)N2[C@H]1C(=O)O.O.O.O [Ex. I, amoxicillin trihydrate]
stdout: 0.73

stdin: Provide only the value of recorded Tap. dens. (dt) for CC1(C)S[C@@H]2[C@H](NC(=O)[C@H](N)c3ccc(O)cc3)C(=O)N2[C@H]1C(=O)O.O.O.O [Ex. IV, amoxicillin trihydrate]
stdout: 0.81

stdin: Provide only the value of recorded Tap. dens. (dt) for CC1(C)S[C@@H]2[C@H](NC(=O)[C@H](N)c3ccc(O)cc3)C(=O)N2[C@H]1C(=O)O.O.O.O [Ex. III, amoxicillin trihydrate]
stdout: 0.81

stdin: Provide only the value of recorded Tap. dens. (dt) for CC1(C)S[C@@H]2[C@H](NC(=O)[C@H](N)c3ccc(O)cc3)C(=O)N2[C@H]1C(=O)O.O.O.O [Comp. A, amoxicillin trihydrate, reference compound]
stdout: 0.55

stdin: Provide only the value of recorded Tap. dens. (dt) for CC1(C)S[C@@H]2[C@H](NC(=O)[C@H](N)c3ccc(O)cc3)C(=O)N2[C@H]1C(=O)O.O.O.O [Ex. VI, amoxicillin trihydrate]
stdout: 0.74

stdin: Provide only the value of recorded Tap. dens. (dt) for CC1(C)S[C@@H]2[C@H](NC(=O)[C@H](N)c3ccc(O)cc3)C(=O)N2[C@H]1C(=O)O.O.O.O [Ex. II, amoxicillin trihydrate]
stdout: 0.78

stdin: Provide only the value of recorded Tap. dens. (dt) for CC1(C)S[C@@H]2[C@H](NC(=O)[C@H](N)c3ccc(O)cc3)C(=O)N2[C@H]1C(=O)O.O.O.O [Ref. B, amoxicillin trihydrate, reference compound]
stdout: 0.47

stdin: Provide only the value of recorded Tap. dens. (dt) for CC1(C)S[C@@H]2[C@H](NC(=O)[C@H](N)c3ccc(O)cc3)C(=O)N2[C@H]1C(=O)O.O.O.O [Ex. V, amoxicillin trihydrate]
stdout: 0.79

---

Kindly state d10 for each of the entries shown.
Assay: Particle size distribution (d10, d50) by laser diffraction, Malvern particle sizer 2600 C
Type: physicochemical
Conditions: dry powder, f=300 mm, trihydrate
A number alone suffices; assume μm.

stdin: Provide only the value of recorded d10 for CC1(C)S[C@@H]2[C@H](NC(=O)[C@H](N)c3ccc(O)cc3)C(=O)N2[C@H]1C(=O)O.O.O.O [Comp. A, amoxicillin trihydrate, reference compound]
stdout: 4.0

stdin: Provide only the value of recorded d10 for CC1(C)S[C@@H]2[C@H](NC(=O)[C@H](N)c3ccc(O)cc3)C(=O)N2[C@H]1C(=O)O.O.O.O [Ex. IV, amoxicillin trihydrate]
stdout: 7.0

stdin: Provide only the value of recorded d10 for CC1(C)S[C@@H]2[C@H](NC(=O)[C@H](N)c3ccc(O)cc3)C(=O)N2[C@H]1C(=O)O.O.O.O [Ex. II, amoxicillin trihydrate]
stdout: 8.8

stdin: Provide only the value of recorded d10 for CC1(C)S[C@@H]2[C@H](NC(=O)[C@H](N)c3ccc(O)cc3)C(=O)N2[C@H]1C(=O)O.O.O.O [Ex. VI, amoxicillin trihydrate]
stdout: 36

stdin: Provide only the value of recorded d10 for CC1(C)S[C@@H]2[C@H](NC(=O)[C@H](N)c3ccc(O)cc3)C(=O)N2[C@H]1C(=O)O.O.O.O [Ex. V, amoxicillin trihydrate]
stdout: 19

stdin: Provide only the value of recorded d10 for CC1(C)S[C@@H]2[C@H](NC(=O)[C@H](N)c3ccc(O)cc3)C(=O)N2[C@H]1C(=O)O.O.O.O [Ex. III, amoxicillin trihydrate]
stdout: 9.9
